B1: Lysine-specific demethylase 2B, residues 656 to 722; numbered along this chain, Q8NHM5 (parent)
chain: LPHTAVCLVCGEAGKEDTVEEEEGKFNLMLMECSICNEIIHPGCLKIKESEGVVNDELPNCWECPKC

Variants of: B1
Test: abundance fitness (aPCA) (normalised: wild type 0, dead -1); higher = more abundant; growth selection in yeast, the domain comes from the species named
Details: Homo sapiens
Listed next: entries and their corresponding abundance fitness.
Returns: the value as a bare number; no unit string appended.

q: Output abundance fitness of `A13H`
a: -0.437

q: Output abundance fitness of `E23T`
a: -0.028

q: Output abundance fitness of `L8K`
a: 0.146

q: Output abundance fitness of `G11P`
a: -0.626

q: Output abundance fitness of `M31C`
a: -0.219

q: Output abundance fitness of `E57M`
a: -0.079

q: Output abundance fitness of `P2A`
a: 0.708
